In this section, each of the binders is paired with its reported MFI at 100 nM.
measuredOn: T1, human PD-1 expressed on cells (human, UniProt Q15116 25-288)
T1 construct: whole, on cells
assayName: flow cytometry, SEB-activated PBMC donor three

{"binder": "19B10 (antibody, human IgG1, V domains shown) VH: EVQLLESGGGLVQPGGSLRLSCAASGFTFSSYAMHWVRQAPGKGLEWVSGISNSGGNTYYADSVKGRFTISRDNSKNTLYLQMNSLRAEDTAVYYCARDNYYYYMDVWGKGTTVTVSS VL: DIQMTQSPSSLSASVGDRVTITCRASQSVSTWLAWYQQKPGKAPKLLIYAASNLETGVPSRFSGSGSGTDFTLTISSLQPEDFATYYCQQTYSTPYTFGQGTKLEIK", "measurementUnit": "MFI", "MFI at 100 nM": 25.2}
{"binder": "24H9 (antibody, human IgG1, V domains shown) VH: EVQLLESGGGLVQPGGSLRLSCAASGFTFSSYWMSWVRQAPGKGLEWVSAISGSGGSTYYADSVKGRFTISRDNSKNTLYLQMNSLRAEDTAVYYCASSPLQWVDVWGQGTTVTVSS VL: DIQMTQSPSSLSASVGDRVTITCRASQGISSWLAWYQQKPGKAPKLLIYSASSLQSGVPSRFSGSGSGTDFTLTISSLQPEDFATYYCQQANSFPFTFGPGTKVDIK", "measurementUnit": "MFI", "MFI at 100 nM": 70.5}
{"binder": "23A11 (antibody, human IgG1, V domains shown) VH: QVQLVQSGAEVKKPGSSVKVSCKASGYTFTDYSLHWVRQAPGQGLEWMGEVIPMFDTAYYAQTFQGRVTITADESTSTAYMELSSLRSEDTAVYYCAREPFTMVRGGRYYYYGMDVWGQGTTVTVSS VL: DIQMTQSPSSLSASVGDRVTITCRASQNINKNLNWYQQKPGKAPKLLIYDASNLQSGVPSRFSGSGSGTDFTLTISSLQPEDFATYYCQHSETFGQGTKVEIK", "measurementUnit": "MFI", "MFI at 100 nM": 46.2}
{"binder": "23A8 (antibody, human IgG1, V domains shown) VH: EVQLLESGGGLVQPGGSLRLSCAASGFTFSSSAMHWVRQAPGKGLEWVSGISGSGSSTYYADSVKGRFTISRDNSKNTLYLQMNSLRAEDTAVYYCARDNNYYYYMDVWGKGTTVTVSS VL: DIQMTQSPSSLSASVGDRVTITCRASQSIGTWLAWYQQKPGKAPKLLIYAASTLRSGVPSRFSGSGSGTDFTLTISSLQPEDFATYYCQQSYSTPYTFGQGTKLEIK", "measurementUnit": "MFI", "MFI at 100 nM": 80.3}
{"binder": "19B6 (antibody, V domains shown) VH: QVQLVQSGAEVKKPGASVKVSCKASGYTFTGYYMHWVRQAPGQGLEWMGIINPSGGSTSYAQKFQGRVTMTRDTSTSTVYMELSSLRSEDTAVYYCAKTAGYDWLPSGLGMDVWGQGTTVTVSS VL: DIQMTQSPSSLSASVGDRVTITCRASQSINSWLAWYQQKPGKAPKLLIYYASSLQSGVPSRFSGSGSGTDFTLTISSLQPEDFATYYCQQGYSVPLSFGQGTKLEIK", "measurementUnit": "MFI", "MFI at 100 nM": 51.2}
